assay: Restrictive medium S. cerevisiae growth inhibition, OD615, pilot screen of yeast lifespan reduction project, restrictive growth control (AID 706); details: OD615, 48 h, at 10 µM, active compounds read high;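 note: modified DeaD lifespan yeast strain shifted to restrictive glucose medium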
property-name: growth inhibition (%)
The answer is to be given in %; state only the numeric part.

Known growth inhibition results, listed for orientation:
compound	readout-value
COc1ccc(OCC(=O)OCCN2C(=O)c3ccccc3C2=O)cc1	-3.81
CC(NS(C)(=O)=O)C(c1cccs1)N1CCN(Cc2ccccc2)CC1 (centres undefined)	11.4

Request: Please give the measured growth inhibition for this compound: `Cc1nnc(SCC(=O)N2CCOCC2)n1C`
Response: -18

Request: Now consider `COc1nc(NC(C)(C)C)nc(Oc2ccc(=O)n(C)n2)n1` .
Response: -10.7

Request: Now consider `COc1cc2c(cc1OC)C1=C(C#N)CC/C(=N\S(=O)(=O)c3ccccc3)N1CC2` .
Response: -3.91

Request: Now consider Cc1cccc(NC(=O)C2CCCN2S(=O)(=O)c2cccc3cccnc23)c1 (centres undefined) .
Response: -6.59

Request: Now consider `Cc1csc2nc(CNS(=O)(=O)c3ccc4c(c3)CCCC4)cn12` .
Response: 0.8
